Please respond with reported GI50 for every item in the list.
# Tested on: NCI-H522
# protocolDescription: NCI tumour cell line growth inhibition, 48 h
Calls of active or inactive are those of the source. Cut-off read from the data, not from the text of the source: active = GI50 up to about 1.1 µM and inactive = higher.

# lookup: NCI-H522 GI50, key = COC(=O)C1(F)C(=O)NC(=O)NC1OC (stereo unspecified) 75.5 µM (inactive)

# lookup: NCI-H522 GI50, key = Nc1nc(NCC2(CO)CCC2)cc(=O)[nH]1 > 100 µM (inactive)

# lookup: NCI-H522 GI50, key = O=C1c2ccc(O)cc2OC(c2cc(O)c(O)c(O)c2)C1O (stereo unspecified) [DIHYDROBINETIN] 24.8 µM (inactive)

# lookup: NCI-H522 GI50, key = COC(=N)c1csc(C2OC(CO)C(O)C2O)n1 (stereo unspecified) > 100 µM (inactive)

# lookup: NCI-H522 GI50, key = C[C@]12CCC(=O)CC1CCCC2=O (stereo partly specified) > 100 µM (inactive)

# lookup: NCI-H522 GI50, key = COC12C=CC(CC1)C(C)(C)C2=O (stereo unspecified) > 100 µM (inactive)

# lookup: NCI-H522 GI50, key = Cc1ccc2c(c1)C(c1cccc3ccccc13)OC2=O (stereo unspecified) > 100 µM (inactive)

# lookup: NCI-H522 GI50, key = Cc1ccc(C(=O)/C=C2/Nc3ccccc3NC2=O)c(C)c1 7.73 µM (inactive)

# lookup: NCI-H522 GI50, key = O=C(O)C12CC3(C(=O)O)CC(C(=O)O)(CC(C(=O)O)(C1)C3=O)C2=O > 100 µM (inactive)

# lookup: NCI-H522 GI50, key = COc1ccc(NCC(=O)Nn2c(C)nc3ccc(S(=O)(=O)Nc4ccc(OC)cc4)cc3c2=O)cc1 > 100 µM (inactive)

# lookup: NCI-H522 GI50, key = O=c1c2ccccc2nc(-c2ccccc2)n1NC(=S)Nc1cccc(Cl)c1 46.7 µM (inactive)

----------
# Tested on: HT-29
# protocolDescription: NCI tumour cell line growth inhibition, 48 h
Activity calls are given as the source filed them. Rule as the data show it: active = GI50 up to about 1.1 µM and inactive = higher.
metric: GI50

Hello, please tell me recorded GI50 for this one: O=C(/C=C1\Nc2ccccc2N\C1=C/C(=O)c1ccc(F)cc1)c1ccc(F)cc1 > 100 µM (inactive)

Hello, please tell me recorded GI50 for this one: O=c1oc2ccc3ccccc3c2cc1-c1nnc(Nc2ccccc2)s1 41 µM (inactive)

Hello, please tell me recorded GI50 for this one: CCCn1c(=O)c2ccccc2[n+]2c(-c3ccc([N+](=O)[O-])cc3)csc12 25 µM (inactive)

Hello, please tell me recorded GI50 for this one: COc1cc2ccc(C(=O)NCCCNC(=O)c3ccc4cc(OC)c(OC)cc4c3)cc2cc1OC > 100 µM (inactive)

Hello, please tell me recorded GI50 for this one: COC(=O)[C@@H]1CN(C(=O)CCc2ccccc2)C(=O)N1C(=O)OCc1ccccc1 > 100 µM (inactive)

Hello, please tell me recorded GI50 for this one: CN(C)CCNS(=O)(=O)c1ccc(N)cc1 > 100 µM (inactive)

Hello, please tell me recorded GI50 for this one: O=C(Nc1ccc(Cl)c(C(F)(F)F)c1)C(=O)C(C(=O)/C=C/c1ccccc1)C1OC(=O)c2ccccc21 (stereo not given) > 100 µM (inactive)

Hello, please tell me recorded GI50 for this one: CCOC(=O)C1=C(NC)OCC1=O > 100 µM (inactive)

Hello, please tell me recorded GI50 for this one: O=C(N/N=C/c1ccc([N+](=O)[O-])o1)c1ccc(C(=O)N/N=C/c2ccc([N+](=O)[O-])o2)cc1 38.6 µM (inactive)

Hello, please tell me recorded GI50 for this one: COC1(Cc2ccccc2)C(=O)c2ccccc2N1C(C)=O (stereo not given) > 100 µM (inactive)

----------
# Tested on: T47D
# protocolDescription: NCI tumour cell line growth inhibition, 48 h
Activity calls are given as the source filed them. Cut-off read from the data, not from the text of the source: active = GI50 up to about 1.1 µM and inactive = higher.
metric: GI50

Hello, please tell me recorded GI50 for this one: N#Cc1c(NC(=O)C(F)(F)F)sc2c3c(=O)c4ccccc4c(=O)c=3oc3ccccc3c12 21.4 µM (inactive)

Hello, please tell me recorded GI50 for this one: Cc1ccc(C)c(COCCOCn2c(=O)[nH]c(=O)c3cc(Br)ccc32)c1 74.6 µM (inactive)

Hello, please tell me recorded GI50 for this one: CCN(CC)CCCC(C)Nc1c2ccc(Cl)cc2nc2ccc(OC)cc12 (stereo unspecified) 2.31 µM (inactive)

Hello, please tell me recorded GI50 for this one: CCOC(=O)c1cc2cc3c4c(c2oc1=O)CCCN4CCC3 15.2 µM (inactive)

Hello, please tell me recorded GI50 for this one: N#Cc1nn(C2OC(COC(=O)c3ccccc3)C(OC(=O)c3ccccc3)C2OC(=O)c2ccccc2)c2nc[nH]c(=O)c12 (stereo unspecified) 46.2 µM (inactive)

Hello, please tell me recorded GI50 for this one: NC(=O)NCCCC(NC(=O)OCCCCCCn1ccc(=O)[nH]c1=O)C(=O)O (stereo unspecified) > 100 µM (inactive)

Hello, please tell me recorded GI50 for this one: C/C=C1/CC(C)C(C)(O)C(=O)OCC2C(O)CN3CCC(OC1=O)C23 (stereo unspecified) > 100 µM (inactive)

Hello, please tell me recorded GI50 for this one: NCC1OC(n2cnc3c(N)ncnc32)CC1O (stereo unspecified) > 100 µM (inactive)

Hello, please tell me recorded GI50 for this one: N=C(/C=C/c1ccc(-c2cn3cc(/C=C/C(=N)N4CCCC4)ccc3n2)cc1)N1CCCC1 > 100 µM (inactive)

Hello, please tell me recorded GI50 for this one: N#CC(N)c1ccc(OCCCCCCCCCCOc2ccc(C(N)C#N)cc2)cc1 (stereo unspecified) 84.1 µM (inactive)

Hello, please tell me recorded GI50 for this one: COc1ccc(/C=C2/SC(c3ccc(Cl)cc3)N(NC(=O)CCCCCCCCC(=O)NN3C(=O)/C(=C\c4ccc(OC)c(OC)c4)SC3c3ccc(Cl)cc3)C2=O)cc1OC (stereo unspecified) > 100 µM (inactive)

Hello, please tell me recorded GI50 for this one: C=C1CCC2CC1[C@@H](C(=O)c1c[nH]c3ccccc13)NC2(C)C (stereo partly specified) 30.6 µM (inactive)

Hello, please tell me recorded GI50 for this one: O=S(=O)(Nc1ccc2ccc3cccc4ccc1c2c34)c1ccccc1 28.4 µM (inactive)

Hello, please tell me recorded GI50 for this one: Cc1ccc(/C=C2\N=C(N3CCCC(CO)C3)NC2=O)cc1 (stereo unspecified) > 100 µM (inactive)

Hello, please tell me recorded GI50 for this one: CSC(Cc1ccc2c(c1)Sc1ccccc1O2)=[N+]1CCOCC1 65.5 µM (inactive)

Hello, please tell me recorded GI50 for this one: CCc1cccc(C(C)C)c1NC(=O)C(=O)C1C(=O)Nc2ccccc2[S+]1[O-] (stereo unspecified) > 100 µM (inactive)

----------
# Test system: HOP-62
# protocolDescription: NCI tumour cell line growth inhibition, 48 h
Calls of active or inactive are those of the source. No stated cut-off is given here; in the data, active = GI50 up to about 1.1 µM and inactive = higher. Non-standard residues stand in square brackets, D forms with d. Residues, ends and D or L forms follow the SMILES beside them. *: point of attachment. Ac5c = NC1(C(=O)O)CCCC1; Boc = CC(C)(C)OC(=O)*; tBu = CC(C)(C)*
Output constraint: value belongs to T = active, F = inactive

Dear colleague, could you share the recorded outcome for CCCC(=O)OCC1OC(n2ccc(N)nc2=O)C(OC(=O)CCC)C1OC(=O)CCC (centres undefined) when you have a moment? T

Dear colleague, could you share the recorded outcome for Cc1ccccc1/N=C/c1ccc(N(CCC#N)S(=O)(=O)c2ccccc2)cc1 when you have a moment? F

Dear colleague, could you share the recorded outcome for CN(C)CCNS(=O)(=O)c1ccc(N)cc1 when you have a moment? F

Dear colleague, could you share the recorded outcome for N=C(N)NS(=O)(=O)c1ccc(NC(=O)c2cccc3c(NNc4ccc(S(N)(=O)=O)cc4)c4ccccc4nc23)cc1 when you have a moment? F

Dear colleague, could you share the recorded outcome for CN1CCN(Cc2ccc(C(=S)Nc3ccccc3)s2)CC1 when you have a moment? F

Dear colleague, could you share the recorded outcome for COC(=O)C1(C(=O)OC)N=C(C)OC1c1ccccn1 (centres undefined) when you have a moment? F

Dear colleague, could you share the recorded outcome for COc1ccc2c(c1)[n+]([O-])c(C(=O)CC(=O)C(=O)Nc1cccc(Cl)c1C)c(C)[n+]2[O-] when you have a moment? F

Dear colleague, could you share the recorded outcome for COc1cc2c(cc1O)-c1c(cnn1-c1ccc([N+](=O)[O-])cc1)CCC2 when you have a moment? F

Dear colleague, could you share the recorded outcome for C/C=C1/CC(C)C(C)(O)C(=O)OCC2C(O)CN3CCC(OC1=O)C23 (centres undefined) when you have a moment? F

Dear colleague, could you share the recorded outcome for O=S(=O)(/N=C1/S/C(=N\c2ccccc2)N(c2ccccc2)/C1=N/S(=O)(=O)c1ccccc1)c1ccccc1 when you have a moment? F

Dear colleague, could you share the recorded outcome for CC(OC(C)(C)C)C1NC(=O)C(CCCCNC(=O)OC(C)(C)C)NC(=O)C(Cc2c[nH]c3ccccc23)NC(=O)C(Cc2ccccc2)NC(=O)C2(CCCC2)NC(=O)C(Cc2ccccc2)NC1=O (centres undefined) (cyclo([Ac5c]FWK(Boc)T(tBu)F); configuration not given here) when you have a moment? F

Dear colleague, could you share the recorded outcome for N#Cc1c(-c2ccccc2)[nH]c2ccc(Cl)cc2c1=O when you have a moment? F

Dear colleague, could you share the recorded outcome for O=C(O)c1cc(O)nc(S)n1 when you have a moment? F

Dear colleague, could you share the recorded outcome for Nc1ccccc1.O=P(O)(O)c1ccccc1 when you have a moment? F

Dear colleague, could you share the recorded outcome for CC(C)[Si](Oc1ccc(CC2N(C(=O)c3ccc([N+](=O)[O-])cc3)C(CCc3ccccc3)CC2(C)C=O)cc1)(C(C)C)C(C)C (centres undefined) when you have a moment? F

Dear colleague, could you share the recorded outcome for O=[N+]([O-])c1ccc(-c2ccc(-c3csc(Nc4ccccc4)n3)o2)cc1 when you have a moment? F

Dear colleague, could you share the recorded outcome for NC(=S)Nc1ccc(S(=O)(=O)Nc2ccc(S(N)(=O)=O)cc2)cc1 when you have a moment? F

Dear colleague, could you share the recorded outcome for O=C(/C=N/c1ccccc1C(=O)[O-])c1cccs1.O=C(/C=N/c1ccccc1C(=O)[O-])c1cccs1.[Zn+2] when you have a moment? F

Dear colleague, could you share the recorded outcome for O=c1[nH]c(=O)n2n1C1C=CC2CC1 when you have a moment? F
